List of Tm values.
# assay.overview: melting temperature; fluorescence melt of hairpins on a sequencing array, two-state fit, raised by 9.35 °C to match UV melts
# condition.details: sodium 0.088 M
Write it as a number; the unit °C goes unstated.

Some entries whose results are on file:
{"columns": ["sequence.text", "Tm (°C)"],
 "data": [
  ["GATGGCGAAAGCCTGATC ((((((....)))..)))", 33.6],
  ["GATCGCGAAAGCGAATC ((((((....))).)))", 52.5],
  ["CGATACCGGAAACGGTCG (((..(((....))))))", 35.1],
  ["GATCTACAACTAGATC ((((((....))))))", 34.1],
  ["GCGAATGGAAACGTTTGC ((.((.(....).)).))", 36],
  ["GCAGTCCCGAAAGGGTGC (((..(((....))))))", 43.5],
  ["GGCTGCGGAAACGCGGTC (.(.(((....))).).)", 53.1],
  ["GCCTAGGGAAACCTAGGC (((((((....)))))))", 67.5]
]}

Determine its reported Tm: GATCCGCAGCCGGATC ((((((....))))))
55.9

Provide one value: measured Tm of GATCATCGTGATGATC ((((((....))))))
57.8

Determine its reported Tm: GCACGGCGAAAGCTTTGC (((..((....))..)))
38.3

Please give the documented Tm of GCTCAGAAATGAGC (((((....)))))
55.4

----------
Reported folding enthalpy by item:
# assay.overview: folding enthalpy; higher = less favourable; fluorescence melt of hairpins on a sequencing array, two-state fit
# condition.details: sodium 0.088 M
Reply numerically in kcal/mol, unit not repeated.

{"columns": ["sequence.text", "folding enthalpy (kcal/mol)"],
 "data": [
  ["GTCGGGAAACCGAC (((((....)))))", -24.2],
  ["GGCCCACGAAAGTGTGCC (((.(((....))).)))", -49.1],
  ["GCATGGCGAAAGCTAAGC ((.(.((....)).).))", -12.6]
]}

Please report folding enthalpy for the following sequence: GTATGCGAAAGCAATTAC ((((((....)))..)))
-10.7

Return value of folding enthalpy for input GCATCAGGAAACTAATGC ((((.((....)).)))) , no commentary.
-22.6

Identify measured folding enthalpy associated with GATCGACGCGTCGATC ((((((....))))))
-52.3

Answer with the recorded folding enthalpy for the sequence listed here: GATCAACCACTTGATC ((((((....))))))
-32.6

Indicate the recorded folding enthalpy value for this sequence: GATCGTGCTACGATC ((((((...))))))
-41

Name the recorded folding enthalpy of the sequence listed here: GCAAAGCGAAAGCTCGGC ((..(((....)))..))
-16.6

Entry GTGAATCGAAAGATCCAC (((.(((....))).))) needs its folding enthalpy filled in; supply it.
-27.7

Give folding enthalpy for the following sequence: GTGACTGGAAACAATCAC ((((.((....)).))))
-20.1

Item GATCGGATCACCGATC ((((((....)))))) : provide folding enthalpy
-34

----------
# assay.overview: melting temperature; fluorescence melt of hairpins on a sequencing array, two-state fit, raised by 9.35 °C to match UV melts
# condition.details: sodium 0.088 M
Given measured Tm, output y if it is greater than or equal to 50 °C and n if not.

{"columns": ["sequence.text", "class.name"],
 "data": [
  ["GCATGGACGAAAGTCTGC (((..(((....))))))", "n"]
]}

Does the reported Tm for GATCAGTTTTCTGATC ((((((....)))))) fall at or above the 50 °C mark?
y

Assess whether reported Tm for GGGGAGGGAAACCTTCCC (((.(((....))).))) sits at 50 °C or higher.
y

----------
# assay.overview: melting temperature; fluorescence melt of hairpins on a sequencing array, two-state fit, raised by 9.35 °C to match UV melts
# condition.details: sodium 0.088 M
readout.label: Tm (°C)
Numeric only. Scale: °C

# annotated cases, reported Tm shown
{"columns": ["sequence.text", "experimental.value"],
 "data": [
  ["GACCGCCGAAAGGCTGTC (((.(((....))).)))", 55.5],
  ["GGACCCCGAAAGGGATCC (((.(((....))).)))", 55.3],
  ["GTACTCGAAAGAGTTAC ((((((....))).)))", 38.9],
  ["GTCGTCGAAAGACGAGAC ((((((....)))..)))", 49.8],
  ["GCCAGTCGAAAGACGGGC (((.(((....))).)))", 68.6]
]}

State, in one line, measured Tm of GAGAGGGGAAACCTTCTC ((((.((....)).))))
40.3

----------
Listing of recorded Tm by entry.
# assay.overview: melting temperature; fluorescence melt of hairpins on a sequencing array, two-state fit, raised by 9.35 °C to match UV melts
# condition.details: sodium 0.088 M
Record the value in °C, omitting the unit from your answer.

Known results for sequences:
{"columns": ["sequence.text", "scale.unit", "Tm"],
 "data": [
  ["GGTCTCCGAAAGGATACC (((.(((....))).)))", "°C", 48.1],
  ["GGATGTCGAAAGACTTCC (((.(((....))).)))", "°C", 51.5],
  ["GATCCTTGCAAGGATC ((((((....))))))", "°C", 55.4],
  ["GCAATGGGAAACCATCAC (..((((....))))..)", "°C", 22.8],
  ["GCACATCGAAAGATATGC (((.(((....))).)))", "°C", 42.9]
]}

Kindly consider the entry below.
Could you please provide reported Tm for GACGTGACGAAAGTCGTC (((..(((....)))))) ? Thanks!
49.4

----------
List of Tm values.
# assay.overview: melting temperature; fluorescence melt of hairpins on a sequencing array, two-state fit, raised by 9.35 °C to match UV melts
# condition.details: sodium 0.088 M
Quick reminder: number only, in °C, skip the unit.

{"columns": ["sequence.text", "scale.unit", "Tm"],
 "data": [
  ["GCGGCCGAAAGGCCCCGC ((((((....)))..)))", "°C", 48.1],
  ["GTAAACGGAAACGCTTAC ((((.((....)).))))", "°C", 37.1],
  ["GGATGCGGAAACGTATCC ((((.((....)).))))", "°C", 52.6],
  ["GTTACCCGAAAGGGCAAC (((.(((....))).)))", "°C", 47.3],
  ["GACAACGAAAGTTCTGTC ((((((....)))..)))", "°C", 27],
  ["GATCCCCTGGGGATC ((((((...))))))", "°C", 64.8],
  ["GATCGAGCAATCGATC ((((((....))))))", "°C", 57.7],
  ["GATAGCGAAAGCTCATC ((((((....))).)))", "°C", 36.5],
  ["GCCTCAGGAAACTGAGAC (.(((((....))))).)", "°C", 38.4],
  ["GACACCGAAAGGTCGTC ((((((....))).)))", "°C", 50.2]
]}

Identify measured Tm corresponding to GATCGGAAATCCGATC ((((((....))))))
54.5

Report Tm for GCTGATCGAAAGATTAGC (((.(((....))).)))
51.9

Could you please provide reported Tm for GATCTACGTTTAGATC ((((((....)))))) ? Thanks!
39.1

Look up and report measured Tm for this entry: GCTCTAGGAAACTAGAAC (.(((((....))))).)
29.7

Supply measured Tm of GCACCCGAAAGGGTCTGC ((((((....)))..))) in your reply.
49.1

State its Tm for this sequence: GCCAAACCGAAAGGTGGC (((..(((....))))))
55.4

Identify measured Tm corresponding to GCACCGGGAAACCAGCGC ((.(.((....)).).))
37.4

----------
# assay.overview: folding enthalpy; higher = less favourable; fluorescence melt of hairpins on a sequencing array, two-state fit
# condition.details: sodium 0.088 M
readout.label: folding enthalpy (kcal/mol)
Give just the numeric value; kcal/mol need not be written.

Some sequences with recorded folding enthalpy:
{"columns": ["sequence.text", "folding enthalpy, kcal/mol"],
 "data": [
  ["GGGTTTGGAAACAAGCCC (((.(((....))).)))", -32.1],
  ["GCCAGGGGAAACCCTAGC ((.((((....)))).))", -22.8]
]}

Using known records, supply folding enthalpy for GCTTTATCGAAAGATAGC (((..(((....))))))
-12.2

Query folding enthalpy for GATAGACGAAAGTCATC (((.(((....))))))
-15.4

Name the recorded folding enthalpy of the item GATCATCAACATGATC ((((((....)))))) in your answer.
-28.6

Complete the entry with folding enthalpy for GGGGATGGAAACACCCCC ((((.((....)).))))
-26.4

Cited source for all entries: the array DNA melting data of Ke et al. (doi:10.1101/2024.01.08.574731)
